target: UniProt Q9UBE8; assay: radiometric filter-binding kinase assay, Kinase HotSpot; settings: compound 0.5 µM; ATP 10 µM
Sequence (Q9UBE8 whole entry, looked up): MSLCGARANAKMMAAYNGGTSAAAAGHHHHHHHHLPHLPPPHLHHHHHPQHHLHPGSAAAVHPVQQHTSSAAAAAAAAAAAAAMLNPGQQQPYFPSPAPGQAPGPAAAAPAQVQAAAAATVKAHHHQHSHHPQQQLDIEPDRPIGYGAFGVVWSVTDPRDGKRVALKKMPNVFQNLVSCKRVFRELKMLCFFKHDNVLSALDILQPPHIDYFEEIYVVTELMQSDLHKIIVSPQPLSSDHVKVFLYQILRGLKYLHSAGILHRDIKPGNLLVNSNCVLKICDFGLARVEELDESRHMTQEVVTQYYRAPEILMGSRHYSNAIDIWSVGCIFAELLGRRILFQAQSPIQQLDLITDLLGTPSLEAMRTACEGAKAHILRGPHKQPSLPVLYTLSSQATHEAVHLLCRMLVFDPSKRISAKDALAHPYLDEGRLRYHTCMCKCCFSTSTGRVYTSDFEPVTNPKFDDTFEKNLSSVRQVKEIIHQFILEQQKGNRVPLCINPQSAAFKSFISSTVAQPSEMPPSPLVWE
Catalogue of molecules with associated residual activity

>  <structure string>
O=C1C(Cl)=C(N2C(=O)CCC2=O)C(=O)c2ccccc21

>  <readout units>
%

>  <residual activity>
105

$$$$
>  <structure string>
CCCCc1c(-c2ccc(OC)cc2)[nH]c2nccnc12

>  <readout units>
%

>  <residual activity>
88.4

$$$$
>  <structure string>
COc1ccc(C(=O)Nc2sc3c(c2C(N)=O)CCCC3)cc1OC

>  <readout units>
%

>  <residual activity>
93.7

$$$$
>  <structure string>
N#Cc1c[nH]c2c[nH]/c(=N\Cc3cccnc3)cc2/c1=N\c1ccc(F)c(Cl)c1

>  <readout units>
%

>  <residual activity>
88

$$$$
>  <structure string>
Cc1cncc2cccc(S(=O)(=O)N3CCCN(C(=O)CN)C[C@H]3C)c12

>  <readout units>
%

>  <residual activity>
99.6

$$$$
>  <structure string>
O=C1NC(=O)c2c1c1c3ccccc3[nH]c1n1cncc21

>  <readout units>
%

>  <residual activity>
87.9

$$$$
>  <structure string>
Cn1c2ccccc2c2c3c(c4c5ccccc5n(CCC#N)c4c21)CNC3=O

>  <readout units>
%

>  <residual activity>
57.3

$$$$
>  <structure string>
O=C1c2ccccc2-c2nc3nnnn3nc21

>  <readout units>
%

>  <residual activity>
98.2

$$$$
>  <structure string>
CO[C@@H]1[C@H](N(C)C(=O)c2ccccc2)C[C@H]2O[C@]1(C)n1c3ccccc3c3c4c(c5c6ccccc6n2c5c31)C(=O)NC4

>  <readout units>
%

>  <residual activity>
96.9

$$$$
>  <structure string>
Fc1ccc(-c2nc3n(c2-c2ccncc2)CCS3)cc1

>  <readout units>
%

>  <residual activity>
41.1

$$$$
>  <structure string>
CS(=O)(=O)CCNCc1ccc(-c2ccc3ncnc(Nc4ccc(OCc5cccc(F)c5)c(Cl)c4)c3c2)o1

>  <readout units>
%

>  <residual activity>
108

$$$$
>  <structure string>
COc1ccc(Cl)cc1NC(=O)Nc1cc(C)nc2ccccc12

>  <readout units>
%

>  <residual activity>
94.5

$$$$
>  <structure string>
C[C@@H]1CCN(C(=O)CC#N)C[C@@H]1N(C)c1ncnc2[nH]ccc12

>  <readout units>
%

>  <residual activity>
110

$$$$
>  <structure string>
COc1ccc2c(c1)c(C1=C(c3c[nH]c4ccccc34)C(=O)NC1=O)cn2CCCN(C)C

>  <readout units>
%

>  <residual activity>
87.9

$$$$
>  <structure string>
O=C(c1cc2cc(O)ccc2[nH]1)c1cc2cc(O)ccc2[nH]1

>  <readout units>
%

>  <residual activity>
83.2

$$$$
>  <structure string>
Cc1cccc(-c2nc(C(C)(C)C)[nH]c2-c2ccc3c(c2)OCO3)n1

>  <readout units>
%

>  <residual activity>
87.9

$$$$
>  <structure string>
CN(C)CCCn1cc(C2=C(c3c[nH]c4ccccc34)C(=O)NC2=O)c2ccccc21

>  <readout units>
%

>  <residual activity>
94

$$$$
>  <structure string>
CC(C)(C)c1cc(C=C(C#N)C#N)cc(Br)c1O

>  <readout units>
%

>  <residual activity>
93.6

$$$$
>  <structure string>
CN(C)S(=O)(=O)c1ccc2c(c1)/C(=C/c1cc3c([nH]1)CCCC3)C(=O)N2

>  <readout units>
%

>  <residual activity>
99.7

$$$$
>  <structure string>
COc1ccc2c(c1)/C(=C/c1cnc[nH]1)C(O)=N2

>  <readout units>
%

>  <residual activity>
69.7

$$$$
>  <structure string>
COc1cc(Nc2c(C#N)cnc3cc(OCCCN4CCN(C)CC4)c(OC)cc23)c(Cl)cc1Cl

>  <readout units>
%

>  <residual activity>
101

$$$$
>  <structure string>
NC(=O)c1cccc(-c2cc(Nc3ccc(OC(F)(F)F)cc3)ncn2)c1

>  <readout units>
%

>  <residual activity>
93.4

$$$$
>  <structure string>
COc1ccc(S(=O)(=O)N(CCO)c2ccccc2CN(C)C/C=C/c2ccc(Cl)cc2)cc1

>  <readout units>
%

>  <residual activity>
101

$$$$
>  <structure string>
Cc1nc(-c2ccccc2)c(-c2ccncc2)o1

>  <readout units>
%

>  <residual activity>
79.4

$$$$
